Target: T1, NFIL3 N112D (human, UniProt Q16649 65-161, N112D)
T1 sequence: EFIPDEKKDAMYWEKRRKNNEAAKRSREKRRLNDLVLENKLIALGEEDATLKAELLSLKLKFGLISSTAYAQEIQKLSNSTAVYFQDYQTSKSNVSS
Test: ITC; ITC: 20 mM Tris pH 7.5, 150 mM NaCl, 25 °C; EMSA: same buffer, 4 °C, 6% native gel in 0.5x TBE
Conditions: protein: recombinant; tags: His6-SUMO removed by TEV; chain copies: 2; blunt
pKd: −log10 of the molar value.
PROPERTY_LABEL: pKd

INSERT INTO results (binder, readout_number) VALUES
  ('TTACGTAA (dsDNA) DNA 1: CATTACGTAATG DNA 2: CATTACGTAATG', 5.67);
